Listed below: relative viability values for each entry.
- System: SYO-1
- EXPERIMENTAL PROTOCOL: relative viability vs DMSO control (72 h) (fraction); higher = more viable cells
- CONDITIONS USED: 3.333 µM
The reply should be a number, written without any unit.

Would you please look over these solved cases?
INSERT INTO results (compound, target_under_test, obs_value) VALUES
  ('COc1cc(OC)c(/C=C/S(=O)(=O)Cc2ccc(OC)c(NCC(=O)O)c2)c(OC)c1 [Rigosertib]', 'SYO-1', 0.287),
  ('CC#CC(=O)N1CCC[C@H]1c1nc(-c2ccc(C(=O)Nc3ccccn3)cc2)c2c(N)nccn12 [Acalabrutinib]', 'SYO-1', 0.948),
  ('CC1(C)CC=C(c2nc(C3CC(C)(C)OC(C)(C)C3)ccc2NC(=O)c2nc(C#N)c[nH]2)CC1 [Edicotinib]', 'SYO-1', 0.981);

Which relative viability value is on record for O=C1NC(=O)[C@@H](c2cn3c4c(cccc24)CCC3)[C@@H]1c1c[nH]c2ccccc12 [Tivantinib] ?
0.271

====

- System: HS729
- EXPERIMENTAL PROTOCOL: relative viability vs DMSO control (72 h) (fraction); higher = more viable cells
- CONDITIONS USED: 10 µM
ENDPOINT: relative viability
Lab note: jot down the number only; don't add units.

Past entries and their recorded results:
INSERT INTO results (compound_smiles, endpoint, obs_value) VALUES
  ('CCN1C(=O)N(c2c(F)c(OC)cc(OC)c2F)Cc2cnc3[nH]c(CN4CCOCC4)cc3c21', 'relative viability', 0.444),
  ('N#CC1(c2ccc(NC(=O)c3cccnc3NCc3ccncc3)cc2)CCCC1', 'relative viability', 0.745),
  ('CC1(C)CC=C(c2nc(C3CC(C)(C)OC(C)(C)C3)ccc2NC(=O)c2nc(C#N)c[nH]2)CC1', 'relative viability', 0.999),
  ('Cn1cc(C2=C(c3cn(C4CCN(Cc5ccccn5)CC4)c4ccccc34)C(=O)NC2=O)c2ccccc21', 'relative viability', 1.15),
  ('Clc1ccc(Nc2nnc(Cc3ccncc3)c3ccccc23)cc1', 'relative viability', 0.934),
  ('O=C(Nc1ccc(OC(F)(F)Cl)cc1)c1cnc(N2CC[C@@H](O)C2)c(-c2cc[nH]n2)c1', 'relative viability', 0.829),
  ('COc1cc(Nc2ncc(F)c(Nc3ccc4c(n3)N(COP(=O)(O)O)C(=O)C(C)(C)O4)n2)cc(OC)c1OC', 'relative viability', 0.586),
  ('CC(C)(C)c1nc(-c2cccc(NS(=O)(=O)c3c(F)cccc3F)c2F)c(-c2ccnc(N)n2)s1', 'relative viability', 0.811);

Shift focus to the following entry.
Look up relative viability: `CCN(CC)CCNC(=O)c1c(C)[nH]c(/C=C2\C(=O)Nc3ccc(F)cc32)c1C`
0.0045

====

- Tested on: SW872
- EXPERIMENTAL PROTOCOL: standardised AUC of viability dose-response curve (72 h) (fraction (0-1)); higher = less growth inhibition (more resistant)
ENDPOINT: standardised AUC
Give the value as a plain number.

Past entries and their recorded results:
INSERT INTO measurements (compound_smiles, endpoint, obs_value) VALUES
  ('CC(C)(O)CNc1nc(Nc2ccnc(C(F)(F)F)c2)nc(-c2cccc(C(F)(F)F)n2)n1', 'standardised AUC', 0.998),
  ('COC(=O)N[C@@H](C)CNc1nccc(-c2cn(C(C)C)nc2-c2cc(Cl)cc(NS(C)(=O)=O)c2F)n1', 'standardised AUC', 0.665),
  ('CC#CC(=O)N1CCC[C@H]1c1nc(-c2ccc(C(=O)Nc3ccccn3)cc2)c2c(N)nccn12', 'standardised AUC', 0.992),
  ('Cc1cccc(-c2nn3c(c2-c2ccnc4ccc(C(N)=O)cc24)CCC3)n1', 'standardised AUC', 0.962),
  ('N#CCNC(=O)c1ccc(-c2ccnc(Nc3ccc(N4CCOCC4)cc3)n2)cc1', 'standardised AUC', 0.898),
  ('O=c1sn(-c2cccc3ccccc23)c(=O)n1Cc1ccccc1', 'standardised AUC', 0.976),
  ('CCC(=O)N1CC[C@H](Nc2ncnc3c2CN(c2cnc(OC)c(C(F)(F)F)c2)CC3)C1', 'standardised AUC', 0.947);

In the following, a different compound is considered.
What standardised AUC value was documented for this compound, `CC(C)(C)c1nc(-c2cccc(NS(=O)(=O)c3c(F)cccc3F)c2F)c(-c2ccnc(N)n2)s1` ?
0.586

====

- Test system: SW982
- EXPERIMENTAL PROTOCOL: relative viability vs DMSO control (72 h) (fraction); higher = more viable cells
- CONDITIONS USED: 0.1235 µM
relative viability less than 1 is TRUE; relative viability greater than or equal to 1 is FALSE.

Record Cn1cc(C2=C(c3cn(C4CCN(Cc5ccccn5)CC4)c4ccccc34)C(=O)NC2=O)c2ccccc21 [Enzastaurin] : is its relative viability strictly below 1?
FALSE

====

- Test system: RD
- EXPERIMENTAL PROTOCOL: relative viability vs DMSO control (72 h) (fraction); higher = more viable cells
- CONDITIONS USED: 0.1235 µM
ENDPOINT: relative viability
Just the number.

Below, 6 molecules whose answers are already recorded.
INSERT INTO assay_data (molecule, obs_value) VALUES
  ('COCCNc1cc(NC(=O)N2CCCc3cc(CN4CCN(C)CC4=O)c(C=O)nc32)ncc1C#N [Roblitinib]', 1.1),
  ('O=C(Nc1nc2cccc(-c3ccc(CN4CCS(=O)(=O)CC4)cc3)n2n1)C1CC1 [Filgotinib]', 1.07),
  ('C[C@]12O[C@H](C[C@]1(O)CO)n1c3ccccc3c3c4c(c5c6ccccc6n2c5c31)CNC4=O [Lestaurtinib]', 1.01),
  ('Cn1ncnc1[C@H]1c2n[nH]c(=O)c3cc(F)cc(c23)N[C@@H]1c1ccc(F)cc1 [Talazoparib]', 0.72),
  ('Cc1cc2cc(Oc3ccnc(Nc4cccc(CS(=O)(=O)NCCN(C)C)c4)n3)ccc2[nH]1 [Sulfatinib]', 1.12),
  ('CC(C)Oc1ccc(-c2nn([C@@H](C)c3oc4ccc(F)cc4c(=O)c3-c3cccc(F)c3)c3ncnc(N)c23)cc1F [Umbralisib]', 1.12);

Look up relative viability with RD for this molecule: Cn1cc(C2=C(c3cn(C4CCN(Cc5ccccn5)CC4)c4ccccc34)C(=O)NC2=O)c2ccccc21 [Enzastaurin]
1.1

====

- Tested on: HT1080
- EXPERIMENTAL PROTOCOL: relative viability vs DMSO control (72 h) (fraction); higher = more viable cells
- CONDITIONS USED: 3.333 µM
ENDPOINT: relative viability
# answer = number (no unit)

Illustrative cases are given below, each with its answer.
INSERT INTO assay_data (molecule, endpoint, obs_value) VALUES
  ('C[C@]12O[C@H](C[C@]1(O)CO)n1c3ccccc3c3c4c(c5c6ccccc6n2c5c31)CNC4=O', 'relative viability', 0.185),
  ('CCN1C(=O)N(c2c(F)c(OC)cc(OC)c2F)Cc2cnc3[nH]c(CN4CCOCC4)cc3c21', 'relative viability', 0.875),
  ('Clc1ccc(Nc2nnc(Cc3ccncc3)c3ccccc23)cc1', 'relative viability', 1.02),
  ('CN1CC[C@@H](NC(=O)Nc2ccc(C#N)cc2)C[C@@H]1c1nc2ccccc2[nH]1', 'relative viability', 1.05);

Entry `CCN(CC)CCNC(=O)c1c(C)[nH]c(/C=C2\C(=O)Nc3ccc(F)cc32)c1C` : reported relative viability = ?
0.113

Would you mind doing O=C1NC(=O)[C@@H](c2cn3c4c(cccc24)CCC3)[C@@H]1c1c[nH]c2ccccc12 [Tivantinib] as well?
0.128

Now consider `CC1(C)CC=C(c2nc(C3CC(C)(C)OC(C)(C)C3)ccc2NC(=O)c2nc(C#N)c[nH]2)CC1` .
1.02

What about this molecule? `CC1(COc2ccc3c(c2)ncn3-c2ccc3cccc(N4CCC(N)CC4)c3n2)COC1`
0.811

Please answer likewise for `COCCNc1cc(NC(=O)N2CCCc3cc(CN4CCN(C)CC4=O)c(C=O)nc32)ncc1C#N`
1.03

====

- Tested on: SK-ES-1
- EXPERIMENTAL PROTOCOL: standardised AUC of viability dose-response curve (72 h) (fraction (0-1)); higher = less growth inhibition (more resistant)
Listed compounds paired with reported standardised AUC

Here's what some known entries look like.
INSERT INTO measurements (compound, target_under_test, obs_value) VALUES
  ('CNC(=O)c1nnc(NC(=O)C2CC2)cc1Nc1cccc(-c2ncn(C)n2)c1OC', 'SK-ES-1', 0.958),
  ('CO[C@H]1C[C@@H]2CC[C@@H](C)[C@@](O)(O2)C(=O)C(=O)N2CCCC[C@H]2C(=O)O[C@H]([C@H](C)C[C@@H]2CC[C@@H](OCCO)[C@H](OC)C2)CC(=O)[C@H](C)/C=C(\C)[C@@H](O)[C@@H](OC)C(=O)[C@H](C)C[C@H](C)/C=C/C=C/C=C/1C [CERTICAN]', 'SK-ES-1', 0.684);

Tell me the measured standardised AUC of Cc1ccc(Nc2nccc(N(C)c3ccc4c(C)n(C)nc4c3)n2)cc1S(N)(=O)=O [PAZOPANIB] , please.
0.966
